Source: ChEMBL document CHEMBL1148608

Give measured Activity for each item. Keep answers brief.
- Tested on: RBCs
- protocol-details: Hemolytic activity as a measure of cytotoxicity against human red blood cells at 175 uM
- Assay type: functional, Erythrocyte
Report only the number, with the unit % understood.

# input Given the compound CCCCC[N+](CCCCC)(CCCCC)CCCCCCCCCCCC[N+](CCCCC)(CCCCC)CCCCC.[Br-].[Br-] , what is its reported Activity?
# output 5

# input # get_value(readout='Activity', item= C[N+](C)(C)CCCCCCCCCC[N+](C)(C)C.[Br-].[Br-] [DECAMETHONIUM BROMIDE] )
# output 0

# input What Activity value was documented for this compound, C[N+](C)(C)CCCCCCCCCCCC[N+](C)(C)C.[Br-].[Br-] ?
# output 0

# input Which measured Activity value corresponds to CCCC[N+](CCCC)(CCCC)CCCCCCCCCCCC[N+](CCCC)(CCCC)CCCC.[Cl-].[Cl-] ?
# output 5

# input // lookup Activity for CC(C)CC[N+](CCCCCCCCCCCC[N+](CCC(C)C)(CCC(C)C)CCC(C)C)(CCC(C)C)CCC(C)C.[Cl-].[Cl-]
# output 30

# input Bench note: what Activity did CCCC[P+](CCCC)(CCCC)CCCCCCCCCCCC[P+](CCCC)(CCCC)CCCC.[Br-].[Br-] show?
# output 0

# input What measured Activity goes with CCCC[N+]1(CCCCCCCCCCCC[N+]2(CCCC)CCCC2)CCCC1.[Cl-].[Cl-] ?
# output 0
